Entries and their Kd
tested.on: T1, human TL1A (Fitzgerald #30R-AT070) (human, UniProt O95150 72-251, limits assumed)
T1 construct: Coated on the ELISA plate at 1 ug/mL; also called TNFSF15
T1 sequence (looked up): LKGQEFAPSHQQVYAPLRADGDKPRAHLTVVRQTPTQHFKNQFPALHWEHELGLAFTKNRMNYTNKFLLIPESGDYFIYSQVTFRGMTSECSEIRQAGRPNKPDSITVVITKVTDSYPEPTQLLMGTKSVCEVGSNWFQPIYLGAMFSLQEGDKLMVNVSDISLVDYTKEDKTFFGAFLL
experiment.summary: ELISA titration, coated human TL1A, culture supernatant
quantity: Kd (pM)

>>> readout_value("A128 (antibody, human IgG1, V domains shown, human IgG1/kappa (pFuse vectors), culture supernatant) VH: QVQLVQSGAEVKKPGASVKVSCKASGFDIQDTYMHWVRQRPGQGLEWMGRIDPASGHTKYDPKFQVRVTITRDTSTSTAYLELSSLRSEDTAVYYCARSGGLPDVWGQGTTVTVSS VL: EIVLTQSPGTLSLSPGERATLSCRASSSVSYMYWYQQKPGQAPRLLIYATSNLASGIPDRFSGSGSGTDFTLTISRLEPEDFAVYYCQQWKGNPRTFGGGTKLEIK")
111
>>> readout_value("A145 (antibody, human IgG1, V domains shown, human IgG1/kappa (pFuse vectors), culture supernatant) VH: QVQLVQSGAEVKKPGASVKVSCKASGFDIQDTYMHWVRQAPGQGLEWMGRIEPASGHIKYDPKFQGRVTMTRDTSTSTAYMELSSLRSEDTAVYYCARSGGLPDWWGQGTTVTVSS VL: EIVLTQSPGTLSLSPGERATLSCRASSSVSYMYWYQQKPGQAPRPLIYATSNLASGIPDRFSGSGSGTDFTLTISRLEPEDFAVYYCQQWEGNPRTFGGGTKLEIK")
70

Origin of values: patent US20260216326A1
